Tested on: B6C3F1 mice, B16 melanoma ip, median survival T/C
Experiment: NCI In Vivo Anticancer Drug Screen. Data for tumor model B16 Melanoma (intraperitoneal) in B6C3F1 mice
Settings: endpoint: median survival time; dose: 200.0 mg/kg/injection; schedule: Q01DX009 (ip); vehicle: Klucel (hydroxypropylcellulose) (HPC); higher = longer survival
Inconclusive results and toxic doses are left out. Where a SMILES comes first, the peptide text is derived from it. [ ]: non-standard residue; d: D form. The star is where a group is joined. Cbz = O=C(OCc1ccccc1)*; Nva = CCC[CH](N)C(=O)O
Below: a set of entries, each annotated with reported T/C.

Before answering, review these 5 worked examples.
Reported T/C ( O=C(NC(Cc1cn(Cc2ccccc2)cn1)C(=O)O)OCC1c2ccccc2-c2ccccc21 (stereo not drawn) ) = 103 % of control

Reported T/C ( CC(C)(C)OC(=O)N(C=O)C(Cc1c[nH]c2ccccc12)C(=O)O (stereo not drawn) ) = 88 % of control

Reported T/C ( O=c1oc2c(O)c(O)cc3c(=O)oc4c(O)c(O)cc1c4c23 ) = 116 % of control

Reported T/C ( CCCC(NC(=O)OCc1ccccc1)C(=O)NC(C(=O)O)C(C)CC (stereo not drawn) (Cbz-[Nva]-Ile-OH; configuration not given here) ) = 109 % of control

Reported T/C ( O=c1ccn(C2OC(CO)C(O)C2O)c(=O)[nH]1 (stereo not drawn) ) = 99 % of control

Please look at the following molecule next.
Reported T/C ( CC(C)(C)OC(=O)NC(Cc1ccc(O)cc1)C(=O)O (stereo not drawn) ) = 103 % of control

----------
System: B6C3F1 mice, B16 melanoma ip, median survival T/C
Experiment: NCI In Vivo Anticancer Drug Screen. Data for tumor model B16 Melanoma (intraperitoneal) in B6C3F1 mice
Conditions: endpoint: median survival time; dose: 25.0 mg/kg/injection; schedule: Q01DX009 (ip); vehicle: saline with Tween-80
Description: The antitumor activity of compounds was measured in mice bearing transplantable tumors. Survival or tumor size were measured and the results are expressed as the measurement made in the treated group (T) divided by the measurement made in the vehicle treated control group (C). The tumor model used in this assay is B16 Melanoma (intraperitoneal) in B6C3F1 mice
Inconclusive results and toxic doses are left out. The calls were made as follows: active = survival T/C of 150% or more; inactive = T/C below 125% in these data.
Your answer must be one of the following: active, inactive

What outcome does the record of this test show for Nc1nc(-c2cccc([N+](=O)[O-])c2)c(Br)c(=O)[nH]1 ?
inactive

What outcome does the record of this test show for O=C(O)/C=C/C(=O)N1Cc2cc3ccccc3nc2C1 ?
inactive

What outcome does the record of this test show for CN=C(N)N/N=C(\C)c1ccc2sc3ccc(/C(C)=N/NC(N)=NC)cc3c2c1 ?
inactive

Continuing:
What outcome does the record of this test show for CC1(C)OCC2OC=CC(=O)C2O1 (centres undefined) ?
inactive

What outcome does the record of this test show for CC(C)(C)OC(=O)NC(Cc1c[nH]c2ccccc12)C(=O)ON1C(=O)CCC1=O (centres undefined) ?
inactive

What outcome does the record of this test show for Nc1nc2c(ncn2C2OC(CO)C(O)C2N)c(=O)[nH]1 (centres undefined) ?
inactive

What outcome does the record of this test show for COC1C(O)C(C)OC(OC2C(Oc3cccc4c(O)c5c(=O)oc6ccc(C)c7c(=O)oc(c34)c5c67)OC(C)C(O)C2O)C1O (centres undefined) ?
active

What outcome does the record of this test show for CN1CCC(c2ccccc2)(c2ccccc2)C(=O)C1 ?
inactive

What outcome does the record of this test show for Oc1ccc(/C=N/N=C/c2ccc(O)c(O)c2)cc1O ?
inactive

What outcome does the record of this test show for C[C@]12CC[C@H](O)CC1=CC[C@@H]1[C@@H]2CC[C@]2(C)C(=O)CC[C@@H]12 ?
inactive

What outcome does the record of this test show for CC(C)(C)OC(=O)NC(CCCCNC(=O)C(F)(F)F)C(=O)ON1C(=O)CCC1=O (centres undefined) ?
inactive

What outcome does the record of this test show for CN(N=O)C(=O)NCCCCCNC(=O)N(C)N=O ?
inactive

What outcome does the record of this test show for CC(C)(C)OC(=O)N1CCCC1C(=O)N1CCCC1C(=O)Oc1ccccc1 (centres undefined) ?
inactive

What outcome does the record of this test show for O=C1CC(c2ccc(Cl)cc2Cl)Oc2ccc(Cl)cc21 (centres undefined) ?
inactive
